Experiment: Viability qHTS for spleen associated tyrosine kinase inhibitor (SYKi) naive MV4-11 cells (AID 1963823); note: nearly all actives have a fitted effect of over 40% in size
Details: MV4-11 AML viability, CellTiter-Glo luminescence, 72 h; series mostly up to 45 µM
Inconclusive results are not listed. Activity calls are given as the source filed them. Calls come from the whole dose curve; as a rule, active = well fitted cell-killing curve with a large enough effect; inconclusive = small, poorly fitted or top-dose-only effect, or effect the other way; inactive = no such curve, though single readings can be large or run the other way.
Your answer must be one of the following: label 1 for active, label 0 for inactive

**Query** Please share the test call associated with Cc1c(N)nc([C@H](CC(N)=O)NC[C@@H](N)C(N)=O)nc1C(=O)N[C@H](C(=O)N[C@@H](C)[C@H](O)[C@@H](C)C(=O)N[C@@H](C(=O)NCCc1nc(-c2nc(C(=O)NCCC[S+](C)C)cs2)cs1)[C@@H](C)O)C(O[C@H]1O[C@H](CO)[C@H](O)[C@@H](O)[C@H]1O[C@H]1O[C@H](CO)[C@@H](O)[C@H](OC(N)=O)[C@@H]1O)c1cnc[nH]1 (stereo partly drawn) .
**Result** label 0

**Query** Please share the test call associated with `CCN1C[C@]2(COC(=O)c3ccccc3N3C(=O)C[C@H](C)C3=O)CC[C@H](OC)[C@@]34[C@@H]5C[C@H]6[C@H](OC)[C@@H]5[C@](O)(C[C@@H]6OC)[C@](O)([C@@H](OC)[C@H]23)[C@@H]14` .
**Result** label 0

**Query** Please share the test call associated with `C=CC(C)(C)c1[nH]c2c(CC=C(C)C)cc(CC=C(C)C)cc2c1C[C@@H]1NC(=O)[C@H](C)NC1=O` .
**Result** label 0

**Query** Please share the test call associated with `O=S(=O)(F)Cc1ccccc1` .
**Result** label 0

**Query** Please share the test call associated with `NCCc1ccc(O)cc1` .
**Result** label 0

**Query** Please share the test call associated with CCCC[N+]1(C)[C@@H]2CC(OC(=O)[C@H](CO)c3ccccc3)C[C@H]1[C@@H]1O[C@@H]12 (stereo partly drawn) .
**Result** label 0

**Query** Please share the test call associated with O=C(O)c1ccnc2cc(C(OCCN3CCCCC3)c3ccccc3Cl)[nH]c12 (stereo not drawn) .
**Result** label 0

**Query** Please share the test call associated with CCC(C)/C=C(C)/C=C/C1=CC2=C(Cl)C(=O)C(C)(OC(C)=O)C(=O)C2=CO1 (stereo not drawn) .
**Result** label 0

**Query** Please share the test call associated with C=CCC1=C(C)C(OC(=O)C2C(C=C(C)C)C2(C)C)CC1=O (stereo not drawn) .
**Result** label 1

**Query** Please share the test call associated with `CC(C)=CCC[C@]1(C)C=Cc2c(O)c3c(c(CC=C(C)C)c2O1)O[C@]12C(=C[C@@H]4CC1C(C)(C)O[C@@]2(C/C=C(/C)C(=O)O)C4=O)C3=O` .
**Result** label 1

**Query** Please share the test call associated with `CC[C@H](C)[C@H](NC(=O)[C@H]1CCCCN1C)C(=O)N(COC(=O)CC(C)C)[C@H](C[C@@H](OC(C)=O)c1nc(C(=O)N[C@@H](Cc2ccc(O)cc2)C[C@H](C)C(=O)O)cs1)C(C)C` .
**Result** label 1

**Query** Please share the test call associated with `N[C@@H]1C[C@H]1c1ccccc1` .
**Result** label 1

**Query** Please share the test call associated with CC(Cc1ccccc1)N(C)Cc1ccco1 (stereo not drawn) .
**Result** label 0

**Query** Please share the test call associated with `O=c1cccc2n1CC1CNC[C@H]2C1` .
**Result** label 0

**Query** Please share the test call associated with Clc1ccc(CCC(Cn2ccnc2)Sc2c(Cl)cccc2Cl)cc1 (stereo not drawn) .
**Result** label 1

**Query** Please share the test call associated with `CC(=O)OC[C@]12C[C@H](OC(C)=O)C(C)=C[C@H]1O[C@@H]1[C@H](O)[C@@H](O)[C@@]2(C)[C@]12CO2` .
**Result** label 0

**Query** Please share the test call associated with ClC1=C(Cl)C2(Cl)C(CBr)CC1(Cl)C2(Cl)Cl (stereo not drawn) .
**Result** label 0

**Query** Please share the test call associated with `CC(=O)[C@H]1CC[C@H]2[C@@H]3CC[C@H]4C[C@](C)(O)CC[C@]4(C)[C@H]3CC[C@]12C` .
**Result** label 0
